inhibition at 0.1 µM values by entry
biological target: receptor tyrosine kinase c-Met (Homo sapiens, UniProt P08581); test: In vitro c-Met kinase inhibitory activity; type: biochemical; conditions: 100 nM; two values per compound; read-out: c-Met Inhibitory rate (%)
Sequence (P08581 25-1390): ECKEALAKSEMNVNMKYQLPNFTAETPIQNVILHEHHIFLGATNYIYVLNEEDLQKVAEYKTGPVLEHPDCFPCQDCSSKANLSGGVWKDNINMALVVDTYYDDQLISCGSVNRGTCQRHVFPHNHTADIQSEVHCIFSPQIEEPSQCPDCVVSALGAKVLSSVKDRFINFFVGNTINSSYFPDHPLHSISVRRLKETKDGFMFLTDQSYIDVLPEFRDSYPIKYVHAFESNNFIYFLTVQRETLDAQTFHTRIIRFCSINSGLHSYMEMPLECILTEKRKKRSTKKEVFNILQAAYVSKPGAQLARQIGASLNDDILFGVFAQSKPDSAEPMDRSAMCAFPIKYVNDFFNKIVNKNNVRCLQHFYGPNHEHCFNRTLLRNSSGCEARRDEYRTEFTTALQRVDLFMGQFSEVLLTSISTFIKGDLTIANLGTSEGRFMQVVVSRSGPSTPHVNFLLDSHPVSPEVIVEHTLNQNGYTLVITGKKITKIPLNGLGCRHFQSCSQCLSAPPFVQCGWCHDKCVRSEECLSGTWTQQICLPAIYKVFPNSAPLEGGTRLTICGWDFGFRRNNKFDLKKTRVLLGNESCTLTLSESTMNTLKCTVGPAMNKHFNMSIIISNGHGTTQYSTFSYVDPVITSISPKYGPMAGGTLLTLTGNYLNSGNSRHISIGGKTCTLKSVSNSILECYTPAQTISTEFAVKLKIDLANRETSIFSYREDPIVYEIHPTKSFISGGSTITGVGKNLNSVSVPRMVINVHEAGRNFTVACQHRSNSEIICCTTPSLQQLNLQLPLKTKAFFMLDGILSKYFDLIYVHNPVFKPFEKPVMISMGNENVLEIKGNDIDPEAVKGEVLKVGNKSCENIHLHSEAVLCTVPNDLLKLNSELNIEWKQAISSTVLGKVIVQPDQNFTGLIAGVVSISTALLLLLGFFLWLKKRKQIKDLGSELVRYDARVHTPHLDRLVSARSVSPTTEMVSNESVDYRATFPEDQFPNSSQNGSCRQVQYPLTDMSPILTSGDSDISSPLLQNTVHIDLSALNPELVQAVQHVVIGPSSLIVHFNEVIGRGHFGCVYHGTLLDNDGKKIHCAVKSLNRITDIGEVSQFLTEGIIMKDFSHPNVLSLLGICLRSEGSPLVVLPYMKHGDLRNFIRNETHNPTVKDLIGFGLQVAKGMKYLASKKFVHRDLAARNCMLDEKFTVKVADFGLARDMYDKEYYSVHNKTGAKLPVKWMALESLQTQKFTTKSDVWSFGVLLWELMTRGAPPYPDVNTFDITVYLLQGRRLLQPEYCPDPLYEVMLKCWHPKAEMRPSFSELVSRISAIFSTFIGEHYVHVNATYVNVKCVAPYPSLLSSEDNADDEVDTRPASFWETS
Just the number please, in %, no unit attached.

Below are worked cases with known answers.
[
  {
    "smiles.data": "COc1cc2ncnc(Oc3ccc(NC(=O)c4c5n(n(-c6cc(F)ccc6F)c4=O)CCCC5)c(F)c3)c2cc1OC",
    "metric": "inhibition at 0.1 µM",
    "test.result": 92.8
  },
  {
    "smiles.data": "COCCOc1cc2ncnc(Oc3ccc(NC(=O)c4c5n(n(-c6cc(F)ccc6F)c4=O)CCCC5)cc3Cl)c2cc1OCCOC",
    "metric": "inhibition at 0.1 µM",
    "test.result": 97.1
  },
  {
    "smiles.data": "COCCOc1cc2ncnc(Oc3ccc(NC(=O)c4c5n(n(-c6ccccc6F)c4=O)CCCC5)cc3C(F)(F)F)c2cc1OCCOC",
    "metric": "inhibition at 0.1 µM",
    "test.result": 94.2
  },
  {
    "smiles.data": "COc1cc2ncnc(Oc3ccc(NC(=O)c4c5n(n(-c6ccccc6F)c4=O)CCCC5)c(F)c3)c2cc1OC",
    "metric": "inhibition at 0.1 µM",
    "test.result": 92
  },
  {
    "smiles.data": "COCCOc1cc2ncnc(Oc3ccc(NC(=O)c4c5n(n(-c6ccc(F)cc6)c4=O)CCCC5)c(F)c3)c2cc1OCCOC",
    "metric": "inhibition at 0.1 µM",
    "test.result": 91.9
  },
  {
    "smiles.data": "O=C(Nc1ccc(Oc2ncnc3cc4c(cc23)OCCOCCOCCO4)c(F)c1)c1c2n(n(-c3ccccc3)c1=O)CCCC2",
    "metric": "inhibition at 0.1 µM",
    "test.result": 94.7
  }
]

# input for lookup
Give the measured inhibition at 0.1 µM for O=C(Nc1ccc(Oc2ncnc3cc4c(cc23)OCCOCCOCCO4)c(Cl)c1)c1c2n(n(-c3ccccc3)c1=O)CCCC2 99.8

====

tested on: BaF3/TEL-AXL cells; assay: Proliferation of BaF3/TEL-AXL cells; assay type: cell-based; conditions: 100 nM; two values per compound; 0.1 µM
metric: BaF3/TEL-AXL proliferation Inhibitory rate (%)
Just the number please, in %, no unit attached.

Below are worked cases with known answers.
[
  {
    "smiles.data": "COc1cc2nccc(Oc3ccc(NC(=O)c4c5n(n(-c6ccccc6)c4=O)CCCC5)cc3F)c2cc1OC",
    "measured.target": "BaF3/TEL-AXL cells",
    "reading.unit": "%",
    "test.result": 71.3
  },
  {
    "smiles.data": "COCCOc1cc2ncnc(Oc3ccc(NC(=O)c4c5n(n(-c6ccccc6)c4=O)CCCC5)c(F)c3)c2cc1OCCOC",
    "measured.target": "BaF3/TEL-AXL cells",
    "reading.unit": "%",
    "test.result": 86.6
  },
  {
    "smiles.data": "COCCOc1cc2ncnc(Oc3ccc(NC(=O)c4c5n(n(-c6ccccc6F)c4=O)CCCC5)c(F)c3)c2cc1OCCOC",
    "measured.target": "BaF3/TEL-AXL cells",
    "reading.unit": "%",
    "test.result": 86.0
  },
  {
    "smiles.data": "COCCOc1cc2ncnc(Oc3ccc(NC(=O)c4c5n(n(-c6ccc(F)cc6)c4=O)CCCC5)c(F)c3)c2cc1OCCOC",
    "measured.target": "BaF3/TEL-AXL cells",
    "reading.unit": "%",
    "test.result": 85.3
  }
]

# return BaF3/TEL-AXL proliferation Inhibitory rate (%) of COc1cc2ncnc(Oc3ccc(NC(=O)c4c5n(n(-c6ccc(F)cc6)c4=O)CCCC5)c(F)c3)c2cc1OC (system: BaF3/TEL-AXL cells) 84.2

# return BaF3/TEL-AXL proliferation Inhibitory rate (%) of COc1cc2ncnc(Oc3ccc(NC(=O)c4c5n(n(-c6cc(F)ccc6F)c4=O)CCCC5)c(F)c3)c2cc1OC (system: BaF3/TEL-AXL cells) 84.2

# return BaF3/TEL-AXL proliferation Inhibitory rate (%) of COCCOc1cc2ncnc(Oc3ccc(NC(=O)c4c5n(n(-c6cc(F)ccc6F)c4=O)CCCC5)cc3F)c2cc1OCCOC (system: BaF3/TEL-AXL cells) 81.3

# return BaF3/TEL-AXL proliferation Inhibitory rate (%) of O=C(Nc1ccc(Oc2ncnc3cc4c(cc23)OCCOCCOCCO4)c(F)c1)c1c2n(n(-c3ccc(F)cc3)c1=O)CCCC2 (system: BaF3/TEL-AXL cells) 83.0

# return BaF3/TEL-AXL proliferation Inhibitory rate (%) of COc1cc2ncnc(Oc3ccc(NC(=O)c4c5n(n(-c6cc(F)ccc6F)c4=O)CCCC5)cc3)c2cc1OC (system: BaF3/TEL-AXL cells) 80.9

# return BaF3/TEL-AXL proliferation Inhibitory rate (%) of COc1cc2ncnc(Oc3ccc(NC(=O)c4c5n(n(-c6ccccc6F)c4=O)CCCC5)c(F)c3)c2cc1OC (system: BaF3/TEL-AXL cells) 84.9

# return BaF3/TEL-AXL proliferation Inhibitory rate (%) of O=C(Nc1ccc(Oc2ncnc3cc4c(cc23)OCCOCCOCCO4)c(F)c1)c1c2n(n(-c3cc(F)ccc3F)c1=O)CCCC2 (system: BaF3/TEL-AXL cells) 78.2

====

target: UniProt:P08581; test: In vitro c-Met kinase inhibitory activity; assay type: biochemical; conditions: 100 nM; two values per compound; 0.1 µM
c-Met Inhibitory rate (%) values by entry
Answer with the number, then the unit.

Below are worked cases with known answers.
[
  {
    "compound": "COCCOc1cc2ncnc(Oc3ccc(NC(=O)c4c5n(n(-c6ccccc6)c4=O)CCCC5)c(F)c3)c2cc1OCCOC [DC621051]",
    "measured.target": "UniProt:P08581",
    "c-Met Inhibitory rate (%)": "97.5%"
  },
  {
    "compound": "COc1cc2ncnc(Oc3ccc(NC(=O)c4c5n(n(-c6cc(F)ccc6F)c4=O)CCCC5)cc3)c2cc1OC [DC621022]",
    "measured.target": "UniProt:P08581",
    "c-Met Inhibitory rate (%)": "96.5%"
  },
  {
    "compound": "COCCOc1cc2ncnc(Oc3ccc(NC(=O)c4c5n(n(-c6ccc(F)cc6)c4=O)CCCC5)cc3F)c2cc1OCCOC [DC621044]",
    "measured.target": "UniProt:P08581",
    "c-Met Inhibitory rate (%)": "100%"
  }
]

Give the measured c-Met Inhibitory rate (%) for O=C(Nc1ccc(Oc2ncnc3cc4c(cc23)OCCOCCOCCO4)c(F)c1)c1c2n(n(-c3ccccc3)c1=O)CCCC2 [DC621061] 95.7%

====

inhibition at 0.1 µM values by entry
target: receptor tyrosine kinase AXL (Homo sapiens); construct: 50 μL of AXL kinase domain recombinant protein diluted in reaction buffer was added to start the reaction; made in house; host or cells: insect cells (baculovirus expression system); experiment: Enzyme activity of receptor tyrosine kinase AXL (ELISA); format: biochemical; conditions: 100 nM; read-out: AXL activity Inhibitory rate(%)
Sequence (P30530 536-807 limits assumed): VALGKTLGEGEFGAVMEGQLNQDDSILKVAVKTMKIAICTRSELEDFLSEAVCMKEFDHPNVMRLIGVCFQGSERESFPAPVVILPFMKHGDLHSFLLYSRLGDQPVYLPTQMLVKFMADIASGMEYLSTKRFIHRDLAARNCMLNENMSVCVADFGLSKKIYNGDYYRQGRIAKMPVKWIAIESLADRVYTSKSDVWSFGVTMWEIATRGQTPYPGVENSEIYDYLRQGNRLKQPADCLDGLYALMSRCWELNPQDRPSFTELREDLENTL
Just the number please, in %, no unit attached.

Below are worked cases with known answers.
[
  {
    "compound": "COCCOc1cc2ncnc(Oc3ccc(NC(=O)c4c5n(n(-c6ccccc6F)c4=O)CCCC5)c(F)c3)c2cc1OCCOC [DC621057]",
    "inhibition at 0.1 µM [%]": 91.9
  },
  {
    "compound": "COc1cc2ncnc(Oc3ccc(NC(=O)c4c5n(n(-c6cc(F)ccc6F)c4=O)CCCC5)cc3C(F)(F)F)c2cc1OC [DC621081]",
    "inhibition at 0.1 µM [%]": 79.2
  },
  {
    "compound": "COCCOc1cc2ncnc(Oc3ccc(NC(=O)c4c5n(n(-c6ccccc6)c4=O)CCCC5)c(F)c3)c2cc1OCCOC [DC621051]",
    "inhibition at 0.1 µM [%]": 100
  }
]

Give the measured inhibition at 0.1 µM for COCCOc1cc2ncnc(Oc3ccc(NC(=O)c4c5n(n(-c6cc(F)ccc6F)c4=O)CCCC5)c(F)c3)c2cc1OCCOC [DC621054] 95.9

====

molecular target: receptor tyrosine kinase c-Met (Homo sapiens); test: In vitro c-Met kinase inhibitory activity; type: biochemical; settings: 10 nM; two values per compound; 0.01 µM
c-Met Inhibitory rate (%) values by entry

Below are worked cases with known answers.
[
  {
    "compound": "COc1cc2ncnc(Oc3ccc(NC(=O)c4c5n(n(-c6ccccc6F)c4=O)CCCC5)cc3F)c2cc1OC [DC621034]",
    "test.result": "66.5%"
  },
  {
    "compound": "COCCOc1cc2ncnc(Oc3ccc(NC(=O)c4c5n(n(-c6ccccc6)c4=O)CCCC5)c(F)c3)c2cc1OCCOC [DC621051]",
    "test.result": "75.9%"
  },
  {
    "compound": "COCCOc1cc2ncnc(Oc3ccc(NC(=O)c4c5n(n(-c6ccc(F)cc6)c4=O)CCCC5)cc3F)c2cc1OCCOC [DC621044]",
    "test.result": "75.1%"
  }
]

# input for lookup
# return c-Met Inhibitory rate (%) of COCCOc1cc2ncnc(Oc3ccc(NC(=O)c4c5n(n(-c6ccccc6F)c4=O)CCCC5)c(F)c3)c2cc1OCCOC [DC621057] (system: receptor tyrosine kinase c-Met (Homo sapiens)) 64.0%
